Protocol Summary: High humidity test (25° C., relative humidity 90% ± 5%), stability study;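 further: samples kept uncovered in sealed humidity desiccators, appearance judged mainly by colour change, melting point on an automatic apparatus, TLC checked for extra spots versus start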
Format: physicochemical
Run Parameters: RH 90% ± 5%, Day 0
Listing: hygroscopic rate (%) Day 0 of selected compounds
Test Readout: hygroscopic rate (%) Day 0

{"columns": ["Compound", "Meas Value"],
 "data": [
  ["COc1ccc(NS(=O)(=O)c2cc(C)c3cc(C(C)C)ccc(C)c2-3)c(OC)c1", 0.97],
  ["Cc1cc(S(=O)(=O)Nc2ccc(N)cc2)c2c(C)ccc(C(C)C)cc1-2", 1.09],
  ["CCCNS(=O)(=O)c1cc(C)c2cc(C(C)C)ccc(C)c1-2", 1.13],
  ["Cc1cc(S(=O)(=O)NCC(C)C)c2c(C)ccc(C(C)C)cc1-2", 1.07],
  ["Cc1cc(S(=O)(=O)Nc2cccc(Br)c2)c2c(C)ccc(C(C)C)cc1-2", 1.01],
  ["Cc1cc(S(=O)(=O)NC2CCCCC2)c2c(C)ccc(C(C)C)cc1-2", 1.89],
  ["Cc1cc(S(=O)(=O)NCc2ccccc2)c2c(C)ccc(C(C)C)cc1-2", 1.24],
  ["Cc1cc(S(=O)(=O)NC(C)C)c2c(C)ccc(C(C)C)cc1-2", 0.95],
  ["Cc1cc(S(=O)(=O)Nc2cccc3ccccc23)c2c(C)ccc(C(C)C)cc1-2", 1.23],
  ["Cc1cc(S(=O)(=O)[O-])c2c(C)ccc(C(C)C)cc1-2.[Na+] [Azulene sulfonate sodium, reference compound]", 2.16]
]}
